From: paper PMC10499737

- assay: Bone marrow and plasma exposure after repeated oral dosing (LC-MS/MS)
- Type: in vivo
- condition_description: Crl:NMRI, mouse, bone marrow/plasma, 0.5 mg/kg, 11-day dosing, 0.5 mg/kg, 5 h after final dose, read-out: bone marrow-to-plasma exposure ratio
measurement_label: Kp at 5 h

• Cn1c(=O)oc2ccc(-c3ccc(C[C@@H](C#N)NC(=O)[C@@H]4CNCCCO4)cc3)cc21 = 8

----------
- assay: Bone marrow and plasma exposure after repeated oral dosing (LC-MS/MS)
- Format: in vivo
- condition_description: Crl:NMRI, bone marrow, mouse, 11-day dosing, 0.5 mg/kg, 5 h after final dose on Day 12, read-out: exposure in bone marrow, mean (SEM)
measurement_label: concentration at 5 h (nM)

* Cn1c(=O)oc2ccc(-c3ccc(C[C@@H](C#N)NC(=O)[C@@H]4CNCCCO4)cc3)cc21 [INS1007] | 321

----------
- assay: Bone marrow and plasma exposure after repeated oral dosing (LC-MS/MS)
- Format: in vivo
- condition_description: Crl:NMRI, bone marrow, mouse, 11-day dosing, 0.1 mg/kg, 5 h after final dose on Day 12, read-out: exposure in bone marrow, mean (SEM)
measurement_label: concentration at 5 h (nM)

- Cn1c(=O)oc2ccc(-c3ccc(C[C@@H](C#N)NC(=O)[C@@H]4CNCCCO4)cc3)cc21: 143

----------
- assay: Bone marrow and plasma exposure after repeated oral dosing (LC-MS/MS)
- Format: in vivo
- condition_description: Crl:NMRI, plasma, mouse, 11-day dosing, 5 mg/kg, 5 h after final dose on Day 12, read-out: exposure in plasma, mean (SEM)
measurement_label: concentration at 5 h

• Cn1c(=O)oc2ccc(-c3ccc(C[C@@H](C#N)NC(=O)[C@@H]4CNCCCO4)cc3)cc21 [INS1007] = 710 nM
